Where do the numbers come from? From paper PMC7881813.

# Platelets annotations
# System: EAC-bearing mice
# method description: Haematological parameters of EAC-bearing mice
# Format: in vivo, mouse
# test settings: treatment at IC50 dose, mean±SD n=6

Prompt line: Recorded Platelets for COc1cc(O)c2c(=O)c3c(O)ccc(OC)c3oc2c1 [XB, 1,8-dihydroxy-3,5-dimethoxyxanthone] with EAC-bearing mice, please?
Response line: 596±4 10^3/µl

Prompt line: Recorded Platelets for COc1cc(O)c2c(=O)c3c(OC)c(OC)ccc3oc2c1 [XA, 1-hydroxy-3,7,8-trimethoxyxanthone] with EAC-bearing mice, please?
Response line: 456±3 10^3/µl

Prompt line: Recorded Platelets for N.N.[Cl][Pt][Cl] [Cisplatin, reference compound] with EAC-bearing mice, please?
Response line: 200±2 10^3/µl

Prompt line: Recorded Platelets for COc1cc(O)c2c(=O)c3c(OC)ccc(OC)c3oc2c1 [XC, 1-hydroxy-3,5,8-trimethoxyxanthone] with EAC-bearing mice, please?
Response line: 441±2 10^3/µl

Prompt line: Recorded Platelets for COc1cc(O)c2c(=O)c3c(O)ccc(O)c3oc2c1 [XD, 1,5,8-trihydroxy-3-methoxyxanthone] with EAC-bearing mice, please?
Response line: 341±8 10^3/µl

###

# WBC annotations
# Tested on: EAC-bearing mice
# method description: Haematological parameters of EAC-bearing mice
# Type: in vivo, mouse
# test settings: treatment at IC50 dose, mean±SD n=6

N.N.[Cl][Pt][Cl] [Cisplatin, reference compound] ... 35.8±0.8 10^3/µl
COc1cc(O)c2c(=O)c3c(OC)c(OC)ccc3oc2c1 [XA, 1-hydroxy-3,7,8-trimethoxyxanthone] ... 30.8±0.6 10^3/µl
COc1cc(O)c2c(=O)c3c(O)ccc(O)c3oc2c1 [XD, 1,5,8-trihydroxy-3-methoxyxanthone] ... 17.2±0.2 10^3/µl
COc1cc(O)c2c(=O)c3c(O)ccc(OC)c3oc2c1 [XB, 1,8-dihydroxy-3,5-dimethoxyxanthone] ... 24.6±0.6 10^3/µl

Prompt line: // lookup WBC for COc1cc(O)c2c(=O)c3c(OC)ccc(OC)c3oc2c1 [XC, 1-hydroxy-3,5,8-trimethoxyxanthone]
Response line: 27.2±0.8 10^3/µl

###

# Tested on: EAC-bearing mice
# method description: Hepatotoxicity and kidney toxicity parameters of EAC-bearing mice
# Assay type: in vivo, mouse
# test settings: EAC-bearing mice, treatment at IC50 dosage, mean±SD n=6
outcome measure: AST (IU/l)
Numeric answer only, unit IU/l assumed.

Examples from the recorded data:
COc1cc(O)c2c(=O)c3c(O)ccc(OC)c3oc2c1 [XB, 1,8-dihydroxy-3,5-dimethoxyxanthone] ... 335
COc1cc(O)c2c(=O)c3c(O)ccc(O)c3oc2c1 [XD, 1,5,8-trihydroxy-3-methoxyxanthone] ... 205
COc1cc(O)c2c(=O)c3c(OC)c(OC)ccc3oc2c1 [XA, 1-hydroxy-3,7,8-trimethoxyxanthone] ... 350

As a next step, examine the molecule that follows.
Prompt line: // lookup AST for COc1cc(O)c2c(=O)c3c(OC)ccc(OC)c3oc2c1 [XC, 1-hydroxy-3,5,8-trimethoxyxanthone]
Response line: 355

###

# Tested on: EAC-bearing mice
# method description: Hepatotoxicity and kidney toxicity parameters of EAC-bearing mice
# Format: in vivo, mouse
# test settings: EAC-bearing mice, treatment at IC50 dosage, mean±SD n=6
outcome measure: Urea (mg/dL)
Numeric answer only, unit mg/dL assumed.

Examples from the recorded data:
COc1cc(O)c2c(=O)c3c(O)ccc(OC)c3oc2c1 [XB, 1,8-dihydroxy-3,5-dimethoxyxanthone] ... 67
COc1cc(O)c2c(=O)c3c(O)ccc(O)c3oc2c1 [XD, 1,5,8-trihydroxy-3-methoxyxanthone] ... 41
COc1cc(O)c2c(=O)c3c(OC)ccc(OC)c3oc2c1 [XC, 1-hydroxy-3,5,8-trimethoxyxanthone] ... 79

Prompt line: // lookup Urea for COc1cc(O)c2c(=O)c3c(OC)c(OC)ccc3oc2c1 [XA, 1-hydroxy-3,7,8-trimethoxyxanthone]
Response line: 71
